These data points were gathered from patent US5733879A.

- test-details: GdmCl denaturation followed by Trp maximal emission wavelength
- Type: physicochemical
- details: phospholipid (DMPC) complex
Where no end group is shown, it is not given here.
measured-metric: midpoint of the GdmCl denaturation, phospholipid complex (M)
A number alone suffices; assume M.

See these solved cases before continuing.
EWLKAEYEKVLEKLKELF [M2]	3
EWLEAFYKKVLEKLKELF [M4]	2.5

For the next question, use this sequence.
Briefly, midpoint of the GdmCl denaturation, phospholipid complex measured for EWLKAFYKKVLEKLKELF [M1] : 4

* * *

Listed here are sequences together with their documented Composition DPPC/Protein w/w.
- test-details: Composition and gel chromatography of the isolated phospholipid-protein complexes
- Format: physicochemical
- details: isolated complex with DPPC, maximum of elution peak
Where no end group is shown, it is not given here.

Reference set (3 entries):
EWLEAFYKKVLEKLKELF [M4]	3/1
EWLKAEYEKVLEKLKELF [M2]	2/1
EWLKAEYEKVEEKLKELF [M3]	4/1

// below: Composition DPPC/Protein w/w requested for another sequence
Per the records, this sequence ( EWLKAFYKKVLEKLKELF [M1] ) has Composition DPPC/Protein w/w equal to 3/1

* * *

- assay-target: semi-purified LCAT enzyme (Homo sapiens)
- Construct: corresponds to the concentration relative to that in plasma by a factor of 5100, with the major contaminant being albumin; from tissue
- Sequence (P04180 25-440): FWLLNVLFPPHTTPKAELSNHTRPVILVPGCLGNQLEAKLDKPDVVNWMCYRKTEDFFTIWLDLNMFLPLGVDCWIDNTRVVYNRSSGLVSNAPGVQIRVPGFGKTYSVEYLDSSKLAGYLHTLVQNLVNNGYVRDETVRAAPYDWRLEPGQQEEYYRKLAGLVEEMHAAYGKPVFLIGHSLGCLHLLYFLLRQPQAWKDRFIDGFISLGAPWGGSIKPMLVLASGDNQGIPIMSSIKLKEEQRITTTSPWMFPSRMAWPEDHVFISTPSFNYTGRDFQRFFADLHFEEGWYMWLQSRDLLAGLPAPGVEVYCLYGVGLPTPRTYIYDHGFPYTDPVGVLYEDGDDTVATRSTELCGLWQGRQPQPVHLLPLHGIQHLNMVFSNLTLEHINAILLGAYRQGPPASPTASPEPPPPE
- test-details: LCAT activation properties of the phospholipid-peptide complexes (HPLC of cholesteryl esters)
- Type: biochemical
- details: discoidal complexes with PLPC and cholesterol, 0-24 h
Where no end group is shown, it is not given here.
measured-metric: kinetics of cholesterol esterification by LCAT (time course)

EWLKAFYKKVLEKLKELF [M1]	fastest kinetics
EWLEAFYKKVLEKLKELF [M4]	fastest kinetics

* * *

- assay-target: semi-purified LCAT enzyme (Homo sapiens, UniProt P04180)
- Construct: corresponds to the concentration relative to that in plasma by a factor of 5100, with the major contaminant being albumin; from tissue
- Sequence (P04180 25-440): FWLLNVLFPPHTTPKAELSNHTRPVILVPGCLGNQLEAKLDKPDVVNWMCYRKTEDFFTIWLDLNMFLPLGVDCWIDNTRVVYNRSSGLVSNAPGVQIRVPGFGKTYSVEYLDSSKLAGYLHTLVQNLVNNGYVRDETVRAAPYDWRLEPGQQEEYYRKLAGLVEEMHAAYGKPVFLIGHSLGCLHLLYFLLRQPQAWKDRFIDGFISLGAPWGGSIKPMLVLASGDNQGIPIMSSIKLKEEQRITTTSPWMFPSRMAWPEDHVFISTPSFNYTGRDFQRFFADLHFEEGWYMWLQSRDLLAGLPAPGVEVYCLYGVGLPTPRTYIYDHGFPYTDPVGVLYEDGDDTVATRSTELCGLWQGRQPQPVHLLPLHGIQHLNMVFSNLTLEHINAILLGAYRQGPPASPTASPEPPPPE
- test-details: LCAT activation properties of the phospholipid-peptide complexes (HPLC of cholesteryl esters)
- Assay type: biochemical
- details: PLPC/cholesterol/peptide discoidal complex as substrate; apparent kinetic constant, 37° C.
Where no end group is shown, it is not given here.
measured-metric: Vmax (LCAT activation) (nmol CE/h)
Return type: number; implicit unit nmol CE/h.

// solved cases for Vmax (LCAT activation) follow
EWLKAFYKKVLEKLKELF [M1]	2.41
EWLKAEYEKVLEKLKELF [M2]	0.33
EWLEAFYKKVLEKLKELF [M4]	1.53

Would you kindly look at the next entry?
Tested on semi-purified LCAT enzyme (Homo sapiens, UniProt P04180), the item EWLKAEYEKVEEKLKELF [M3] showed Vmax (LCAT activation) equal to 0.33
